# Test system: SNG-M (Endometrial Carcinoma)
# method-description: combination Emax (second highest fraction inhibited in the dose matrix, 72 h); higher = more inhibition; extreme values may be limits of the assay
measurement-type: combination Emax

Cn1cnc2c(F)c(Nc3ccc(Br)cc3Cl)c(C(=O)NOCCO)cc21 [Selumetinib] + CC(C)n1c(=O)n(C)c2cnc3cc(F)c(-c4ccc(OCCCN5CCCCC5)nc4)cc3c21 [AZD1390] (first compound max 10 µM, 7x7, partner max 0.3 µM); 0.187

====

# System: H4 (Low Grade Glioma)
# method-description: Bliss excess, mean over the matrix (fraction); higher = more synergy
The reader will find reported Bliss excess values listed item by item below.
measurement-type: Bliss excess

Cn1cnc2c(F)c(Nc3ccc(Br)cc3Cl)c(C(=O)NOCCO)cc21 [Selumetinib] + CC(C)n1c(=O)n(C)c2cnc3cc(F)c(-c4ccc(OCCCN5CCCCC5)nc4)cc3c21 [AZD1390] (first compound max 10 µM, 7x7, partner max 0.3 µM); -0.0503
CN(C)CCCOc1ccc(-c2ccc3ncc4c(c3c2)n(C2CCOCC2)c(=O)n4C)cn1 [AZD0156] + C=CCn1c(=O)c2cnc(Nc3ccc(N4CCN(C)CC4)cc3)nc2n1-c1cccc(C(C)(C)O)n1 [AZD1775] (first compound max 1 µM, partner max 1 µM); -0.0516
CN(CCO)CC[C@H](CSc1ccccc1)Nc1ccc(S(=O)(=O)NC(=O)c2ccc(N3CCC([C@@H](O)c4ccccc4-c4ccc(Cl)cc4)CC3)cc2)cc1S(=O)(=O)C(F)(F)F [AZD4320] + C[C@@H]1COCCN1C2=NC(=NC(=C2)C3(CC3)[S@](=N)(=O)C)C4=C5C=CNC5=NC=C4 [AZD6738] (first compound max 1 µM, 7x7, partner max 10 µM); -0.0249
